Data provenance: paper PMC11191771

tgt: PRC2.2 six-subunit complex WT (EZH2, SUZ12, EED, RBAP48, AEBP2, JARID2 119-450) (human, UniProt Q15910-2;Q15022;O75530;Q09028;Q6ZN18;Q92833 …)
assay-procedure: EMSA; 100 mM KCl; EMSA: 50 mM Tris-HCl pH 7.5 (25 C), 100 mM KCl, 2.5 mM MgCl2, 0.1 mM ZnCl2, 2 mM 2-mercaptoethanol?; FP: 50 mM Tris pH 7.5, 10 or 25 mM KCl, 2.5 mM MgCl2, 0.1 mM ZnCl2, 0.1 mg/mL BSA?, room temperature, 5 nM RNA or DNA
assay-context: protein: recombinant; tags: His-EZH2, Strep-GFP-AEBP2, Strep-GFP-JARID2; TEV protease treated; copies: 1;1;1;1;1;1; label: 5' 32P (EMSA); two G-quadruplexes
readout-label: pKd
Field pKd (float): negative decimal logarithm of the concentration in molar.

# get_value(readout='pKd', item= 2G4 RNA (structured_RNA) RNA: CAAAAACAAAAACAAAAACAAAAACAAAAAGGGAAGGGAAGGGAAGGGAAACAACAACAACAACAGGGAAGGGAAGGGAAGGGAA )
7.49
